B1: PDZK1 (parent)
chain: QKEQGLSDNILSPVMNGGVQTWTQ

Variants of: B1
test.summary: protein stability index of a GFP-peptide fusion (GPS, HEK-293T) (PSI 1-6); higher = more stable;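 note: lentivirally expressed fusions sorted by FACS into six bins by GFP to DsRed ratio, PSI derived from sequencing read proportions per bin multiplied by bin number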
particulars: c terminus: a fixed tail appended

>  <mutation.annotation>
V19I

>  <protein stability index>
2.17

$$$$
>  <mutation.annotation>
T23V

>  <protein stability index>
1.56

$$$$
>  <mutation.annotation>
Q4V

>  <protein stability index>
2.52

$$$$
>  <mutation.annotation>
Q20P

>  <protein stability index>
3.07

$$$$
>  <mutation.annotation>
S7Q

>  <protein stability index>
2.13

$$$$
>  <mutation.annotation>
K2T

>  <protein stability index>
3.26

$$$$
>  <mutation.annotation>
E3K

>  <protein stability index>
4.26

$$$$
>  <mutation.annotation>
K2M

>  <protein stability index>
2.51

$$$$
>  <mutation.annotation>
T21L

>  <protein stability index>
2.68

$$$$
>  <mutation.annotation>
P13C

>  <protein stability index>
1.87

$$$$
>  <mutation.annotation>
G5M

>  <protein stability index>
1.99

$$$$
>  <mutation.annotation>
Q20G

>  <protein stability index>
3.02

$$$$
>  <mutation.annotation>
W22M

>  <protein stability index>
4.55

$$$$
>  <mutation.annotation>
L6A

>  <protein stability index>
2.96

$$$$
>  <mutation.annotation>
N9H

>  <protein stability index>
2.34

$$$$
>  <mutation.annotation>
N9S

>  <protein stability index>
2.75

$$$$
>  <mutation.annotation>
G18F

>  <protein stability index>
2.45

$$$$
>  <mutation.annotation>
N16H

>  <protein stability index>
2.81

$$$$
>  <mutation.annotation>
L6W

>  <protein stability index>
2.56

$$$$
>  <mutation.annotation>
G17Y

>  <protein stability index>
2.5

$$$$
>  <mutation.annotation>
Q20L

>  <protein stability index>
2.14

$$$$
>  <mutation.annotation>
I10H

>  <protein stability index>
2.96

$$$$
>  <mutation.annotation>
L11E

>  <protein stability index>
3.97

$$$$
>  <mutation.annotation>
V19E

>  <protein stability index>
3.7

$$$$
>  <mutation.annotation>
S12A

>  <protein stability index>
2.58

$$$$
>  <mutation.annotation>
P13Q

>  <protein stability index>
2.5

$$$$
>  <mutation.annotation>
Q20F

>  <protein stability index>
2.68

$$$$
>  <mutation.annotation>
N16K

>  <protein stability index>
1.49

$$$$
>  <mutation.annotation>
T21D

>  <protein stability index>
4.85

$$$$
>  <mutation.annotation>
I10V

>  <protein stability index>
2.56

$$$$
>  <mutation.annotation>
K2N

>  <protein stability index>
2.88

$$$$
>  <mutation.annotation>
K2I

>  <protein stability index>
2.42

$$$$
>  <mutation.annotation>
G18H

>  <protein stability index>
2.62

$$$$
>  <mutation.annotation>
Q4F

>  <protein stability index>
2.21

$$$$
>  <mutation.annotation>
N9Q

>  <protein stability index>
2.5

$$$$
>  <mutation.annotation>
L6H

>  <protein stability index>
3.12

$$$$
>  <mutation.annotation>
G17T

>  <protein stability index>
2.25

$$$$
>  <mutation.annotation>
L6M

>  <protein stability index>
2.12

$$$$
>  <mutation.annotation>
T23G

>  <protein stability index>
3.5

$$$$
>  <mutation.annotation>
G18P

>  <protein stability index>
3.46

$$$$
>  <mutation.annotation>
S12M

>  <protein stability index>
2.22

$$$$
>  <mutation.annotation>
I10E

>  <protein stability index>
3.89

$$$$
>  <mutation.annotation>
S7G

>  <protein stability index>
3.19

$$$$
>  <mutation.annotation>
L6G

>  <protein stability index>
2.61

$$$$
>  <mutation.annotation>
E3P

>  <protein stability index>
2.93

$$$$
>  <mutation.annotation>
V19Y

>  <protein stability index>
1.86

$$$$
>  <mutation.annotation>
E3I

>  <protein stability index>
2.67

$$$$
>  <mutation.annotation>
T21Q

>  <protein stability index>
3.55

$$$$
>  <mutation.annotation>
G5N

>  <protein stability index>
2.7

$$$$
>  <mutation.annotation>
G17A

>  <protein stability index>
3.96

$$$$
>  <mutation.annotation>
L6F

>  <protein stability index>
1.87

$$$$
>  <mutation.annotation>
Q20C

>  <protein stability index>
2.16

$$$$
>  <mutation.annotation>
G18W

>  <protein stability index>
2.33

$$$$
>  <mutation.annotation>
T23R

>  <protein stability index>
3.42

$$$$
>  <mutation.annotation>
M15N

>  <protein stability index>
2.85

$$$$
>  <mutation.annotation>
Q1A

>  <protein stability index>
2.61

$$$$
>  <mutation.annotation>
S12H

>  <protein stability index>
1.74

$$$$
>  <mutation.annotation>
L11Y

>  <protein stability index>
2.5

$$$$
>  <mutation.annotation>
E3G

>  <protein stability index>
1.82

$$$$
>  <mutation.annotation>
N16I

>  <protein stability index>
2.89

$$$$
>  <mutation.annotation>
Q1G

>  <protein stability index>
2.15

$$$$
>  <mutation.annotation>
Q4K

>  <protein stability index>
2.08

$$$$
>  <mutation.annotation>
Q1F

>  <protein stability index>
1.97

$$$$
>  <mutation.annotation>
P13K

>  <protein stability index>
2.47

$$$$
>  <mutation.annotation>
L11K

>  <protein stability index>
1.64

$$$$
>  <mutation.annotation>
Q4H

>  <protein stability index>
2.61

$$$$
>  <mutation.annotation>
N16S

>  <protein stability index>
2.81

$$$$
>  <mutation.annotation>
Q1D

>  <protein stability index>
3.37

$$$$
>  <mutation.annotation>
D8T

>  <protein stability index>
2.39

$$$$
>  <mutation.annotation>
N9G

>  <protein stability index>
2.56

$$$$
>  <mutation.annotation>
D8L

>  <protein stability index>
2.73

$$$$
>  <mutation.annotation>
Q4T

>  <protein stability index>
2.78

$$$$
>  <mutation.annotation>
L6P

>  <protein stability index>
3.03

$$$$
>  <mutation.annotation>
L6D

>  <protein stability index>
2.65

$$$$
>  <mutation.annotation>
K2Q

>  <protein stability index>
3.15

$$$$
>  <mutation.annotation>
G18I

>  <protein stability index>
2.61

$$$$
>  <mutation.annotation>
K2F

>  <protein stability index>
2.26

$$$$
>  <mutation.annotation>
D8M

>  <protein stability index>
1.92

$$$$
>  <mutation.annotation>
V19H

>  <protein stability index>
2.58

$$$$
>  <mutation.annotation>
S12W

>  <protein stability index>
1.95

$$$$
>  <mutation.annotation>
I10R

>  <protein stability index>
2.35

$$$$
>  <mutation.annotation>
N9Y

>  <protein stability index>
1.78

$$$$
>  <mutation.annotation>
G17I

>  <protein stability index>
3.36

$$$$
>  <mutation.annotation>
G17K

>  <protein stability index>
2.13

$$$$
>  <mutation.annotation>
Q24I

>  <protein stability index>
2.36

$$$$
>  <mutation.annotation>
S7T

>  <protein stability index>
2.09

$$$$
>  <mutation.annotation>
G17L

>  <protein stability index>
2.8

$$$$
>  <mutation.annotation>
K2E

>  <protein stability index>
3.35

$$$$
>  <mutation.annotation>
P13H

>  <protein stability index>
1.96

$$$$
>  <mutation.annotation>
P13R

>  <protein stability index>
2.09

$$$$
>  <mutation.annotation>
Q24F

>  <protein stability index>
1.78

$$$$
